# System: OVCAR-3 ovarian
# method: NCI-60 one-dose screen, 48 h (100 = growth as untreated, 0 = no growth, -100 = all killed)
# run_parameters: 10 µM unless noted
This is part of a sample that, as a whole, favours compounds with a hit. Of some 83,000 tested, about 20% had one in any assay.
metric_name: growth (%)
Answer in %, number only, no unit symbol.

## Input Fill in: growth of CSC1=CC(=O)c2ccccc2C1=O is ___
## Output -96.2

## Input Fill in: growth of O=c1oc2ccccc2cc1-c1csc(N=Nc2c(O)[nH]c3ccc(Br)cc23)n1 is ___
## Output 108

## Input Fill in: growth of CCOC(=O)C1=C(C)N2C(=NC3=C(CCCC/C3=C\c3ccccc3)C2c2ccccc2)S1 (centres undefined) is ___
## Output 107

## Input Fill in: growth of N#Cc1c(O)c2c(c(O)c1C#N)C(=O)c1ccccc1C2=O is ___
## Output -9.86

## Input Fill in: growth of CCOC(=O)n1cc(C2=C(c3cn(C)c4ccccc34)COC2=O)c2ccccc21 is ___
## Output -29.8

## Input Fill in: growth of c1ccc2cc(-c3n(Cc4ccc5ccccc5n4)c4ccccc4[n+]3Cc3ccc4ccccc4n3)ccc2c1 is ___
## Output -18.9

## Input Fill in: growth of O=C(CCc1nnc2sc(-c3ccccc3)nn12)c1nc2ccccc2[nH]1 is ___
## Output 116

## Input Fill in: growth of O=S(=O)(OCCO)c1ccccc1 is ___
## Output 112

## Input Fill in: growth of COc1ccc(/C=C/C(=O)N2CCC(O)CC2)cc1OC1CCCC1 is ___
## Output 111

## Input Fill in: growth of Clc1ccc2c(c1)C[C@H]1C[C@@H](c3cccs3)N2O1 is ___
## Output 114

## Input Fill in: growth of COC(=O)c1cc(-c2ccc(C)cc2)n(C(=O)CSc2nc3sc(C(N)=O)c(C)c3c(=O)n2Cc2ccccc2)n1 is ___
## Output 106

## Input Fill in: growth of COc1ccc(C2=NOC(CC(=O)N(CCO)CCO)C2)cc1OC1CCCC1 (centres undefined) is ___
## Output 114

## Input Fill in: growth of Cn1c2c(cc(S(=O)(=O)c3ccccc3)c1=O)CCc1c-2cnn1-c1ccccc1Cl is ___
## Output 110

## Input Fill in: growth of CCCCCCCC/C=C\CCCCCCCCOc1cccc(CC(=O)NCC[N+]2(C)CCOCC2)c1 is ___
## Output 98.7

## Input Fill in: growth of CCC(C)[C@H]1O[C@]2(CC[C@@H]1C)C[C@@H]1C[C@@H](C/C=C(\C)[C@@H](OC3C[C@H](OC)C(O[C@H]4C[C@H](OC)[C@@H](O)[C@H](C)O4)[C@H](C)O3)[C@@H](C)/C=C/C=C3\CO[C@@H]4[C@H](O)C(C)=C[C@@H](C(=O)O1)[C@]34O)O2 (some centres undefined) is ___
## Output -26.5

## Input Fill in: growth of CCCCOC(=O)C1OC(Oc2ccc3c(C)cc(=O)oc3c2)[C@@H](OC(C)=O)C(OC(C)=O)C1OC(C)=O (some centres undefined) is ___
## Output 108

## Input Fill in: growth of O=C(N/N=C(\CS(=O)(=O)c1ccccc1)c1cc2ccccc2oc1=O)c1ccccc1 is ___
## Output 111

## Input Fill in: growth of COC(=O)c1c2c(c(C)[n+]([O-])c1C)C(=O)C=C(NCc1ccc(Cl)cc1)C2=O is ___
## Output -28.6

## Input Fill in: growth of O=C(NCc1cccnc1)c1ccc([N+](=O)[O-])o1 is ___
## Output -4.71

---

# Test system: SF-539 CNS
# method: NCI-60 one-dose screen, 48 h (100 = growth as untreated, 0 = no growth, -100 = all killed)
# run_parameters: 10 µM unless noted
About 83,000 compounds went through this panel and 20% of them were active in at least one assay; those are over-represented in the sample as a whole. Calls of active or inactive are those of the source. Rule for the calls: active = growth percent below 10; inactive = the rest.
metric_name: growth

## Input Fill in: growth of CCCOC(=O)c1ccc2c(c1)[N+](=O)C(C(=O)c1ccccc1)=C(C(F)(F)F)[N+]2=O is ___
## Output -95% (active)

## Input Fill in: growth of O=S(=O)(Nc1ccccc1Cl)c1ccc(-c2cnc(C3CC3)o2)cc1 is ___
## Output -22.7% (active)

## Input Fill in: growth of O=C(c1ccccc1)C(Br)C(Br)c1cccc([N+](=O)[O-])c1 (stereo not given) is ___
## Output 38.1% (inactive)

## Input Fill in: growth of CCCCCCCCCCCC(=O)[O][Sn]([CH2]CCC)([CH2]CCC)[CH2]CCC is ___
## Output -97.7% (active)

## Input Fill in: growth of CCN1CCN(c2nc3ccccc3c3c(=O)c4cc(F)ccc4sc23)CC1 is ___
## Output 86% (inactive)

## Input Fill in: growth of O=C(Nc1ccc(F)cc1)c1ccc(C(=O)Nc2ccc(F)cc2)cc1 is ___
## Output 89.9% (inactive)

## Input Fill in: growth of COc1nc2c(cc1S(=O)(=O)c1ccccc1)CCc1c-2cnn1-c1cccc(Cl)c1 is ___
## Output 81.7% (inactive)

## Input Fill in: growth of C(=C\c1ccccc1)/CN1CCN(C(c2ccccc2)c2ccccc2)CC1 is ___
## Output 90.7% (inactive)

## Input Fill in: growth of O=c1[nH]c(=O)n(Cc2ccc(F)cc2)cc1F is ___
## Output 100% [50 µM] (inactive)

## Input Fill in: growth of CC1=CN2C(=NC3=C(CCCC/C3=C\c3ccccc3)C2c2ccccc2)S1 (stereo not given) is ___
## Output 92.3% (inactive)

---

# Test system: NCI-H322M lung
# method: NCI-60 one-dose screen, 48 h (100 = growth as untreated, 0 = no growth, -100 = all killed)
# run_parameters: 10 µM unless noted
This is part of a sample that, as a whole, favours compounds with a hit. Of some 83,000 tested, about 20% had one in any assay.
metric_name: growth (%)
Answer in %, number only, no unit symbol.

## Input Fill in: growth of O=c1nc(NO)[nH]c(=O)n1Cc1ccc(F)cc1 is ___
## Output 98.8

## Input Fill in: growth of O=c1nc(NO)[nH]c(=O)n1Cc1ccccc1 is ___
## Output 120

## Input Fill in: growth of COc1cccc(C2C3=C(COC3=O)N(CCO)c3cc4c(cc32)OCO4)c1 (stereo unspecified) is ___
## Output 48.9

## Input Fill in: growth of COc1ccc(Cn2c(Br)c3c(c2-c2cc(OC)c(OC)c(OC)c2)CCc2sc(N)nc2-3)cc1 is ___
## Output 46

## Input Fill in: growth of COc1ccc(/C=C(\C#N)c2cc3ccccc3n2C)cc1 is ___
## Output 48.3

## Input Fill in: growth of Cc1nc2cc(Nc3nc(Nc4ccc(F)cc4)nc(-c4ccc(Cl)cc4)n3)ccc2n1Cc1ccccc1 is ___
## Output 94

---

# Tested on: RXF 393 renal
# method: NCI-60 one-dose screen, 48 h
# run_parameters: 10 µM unless noted
# Description: Cells are grown in 96 well plates and exposed to the test compound for 48 hours. Compounds are tested at a single concentration, which is 10^-5 M for most compounds. The reported endpoint is percent growth (GI% or GIPRCNT), where numbers from 0 - 100% represent growth inhibition, and numbers from -100% - 0 represent cell death. For example, a value of 40 represents 60% growth inhibition. A value of 0 means no net growth occurred over the course of the experiment. […]
The panel holds about 83,000 compounds, 20% with a hit somewhere; the sample as a whole holds those more often. Active and inactive are the calls of the source. How the source made its calls: active means growth percent below 10; inactive means the rest.
Select the correct class. Options are 1 (active), -1 (inactive) and nothing else.

## Input Recorded call for CCCCC(CCCC)(S(=O)(=O)CC)S(=O)(=O)CC ?
## Output -1

## Input Recorded call for CC1(C)N=C(N)N=C(N)N1c1cccc(OCCOc2cccc([N+](=O)[O-])c2)c1 ?
## Output -1

## Input Recorded call for O=C(N/N=C/c1ccc(F)cc1)c1[nH]c2ccc(I)cc2c1-c1ccccc1 ?
## Output -1

## Input Recorded call for CCCCCCCC/C=C\CCCCCCCCOc1cccc(CC(=O)NCC[N+]2(C)CCCC2)c1 ?
## Output -1

## Input Recorded call for CCCCCCCCCCCCCCNc1nc(CO)ncc1-c1ccc(C(F)(F)F)cc1 ?
## Output -1

## Input Recorded call for COc1cccc(C2CC(=O)Nc3cc4c(cc32)CCC4)c1OC (stereo not given) ?
## Output -1

## Input Recorded call for Cc1ccc(C(=O)Nc2ccccc2N)cc1 ?
## Output -1

## Input Recorded call for COc1ccc(/C=N/OCC(O)CN2CCC(O)CC2)cc1OC1CCCC1 (stereo not given) ?
## Output -1

## Input Recorded call for c1ccc2cc(-c3n(Cc4ccc5ccccc5n4)c4ccccc4[n+]3Cc3ccc4ccccc4n3)ccc2c1 ?
## Output 1

## Input Recorded call for COc1ccc(S(=O)(=O)ON=C2C=C(C)C(=O)C(C)=C2)cc1 ?
## Output -1

Source of measurements: PubChem BioAssay (NCI)
